These data points were gathered from patent US5298494A.

- System: T cell proliferation in mouse spleen cell mixed lymphocyte cultures
- METHOD_SUMMARY: Mixed Lymphocyte Reaction (MLR) assay
- Assay type: cell-based, mouse (Balb/c responder, C57B1/6 stimulator)
- CONDITION_INFO: 300 um
Just a reminder that ties go to condition not met: only Mean O.D. Allogenic strictly below 0.2 O.D. counts as condition met.

// below: answered compounds
CCCCCCCOC[C@H]1O[C@](COCC)(OC)[C@@H](OCC)[C@@H]1O | condition not met
CCCCC/C=C\COC[C@H]1O[C@@]2(OC)COC(C)(C)O[C@H]2[C@@H]1OC/C=C\CCCCC | condition met
CN1CCCC1CCNC[C@H]1OC(C)(C)O[C@@H]2[C@H]3OC(C)(C)O[C@H]3O[C@@H]21 (stereo partly drawn) | condition met
CCCCC/C=C\COC[C@H]1O[C@](COC/C=C\CCCCC)(OC)[C@@H](O)[C@@H]1O | condition not met
CCCCCCCCCCCCCCCOCC(O)C1OC2OC(C)(C)OC2C1O (stereo not drawn) | condition met

Qu. Does `CCCCC/C=C/COC[C@H]1O[C@@]2(OC)COC(C)(C)O[C@H]2[C@@H]1OC/C=C/CCCCC` have Mean O.D. Allogenic strictly under 0.2 O.D.?
Ans. condition met

Qu. Also, CC1(C)OC2OC(C(O)COCCCc3ccccc3)C(O)C2O1 (stereo not drawn) please.
Ans. condition met

Qu. Also, `CCCCCCCOC[C@H]1O[C@@]2(OC)COC(C)(C)O[C@H]2[C@@H]1O` please.
Ans. condition met

Qu. Also, `CCCCCCCO[C@@H]1[C@@H](CO)O[C@@]2(OC)COC(C)(C)O[C@@H]12` please.
Ans. condition met

###

- Test system: T lymphocytes (normal mouse spleen cells) stimulated with ConA
- METHOD_SUMMARY: Mouse Spleen Cell ConA Blastogenesis Assay
- Type: cell-based, mouse (C57Bl/6)
- CONDITION_INFO: Mus musculus, T-lymphocyte, ConA 1 ug/ml; compound 10 ug/ml; read-out: % change from control, ConA blastogenic response
- Protocol: It is well known that several plant lectins, when cultured in vitro with lymphocytes, stimulate cellular activation and proliferation. Concanavolin, (ConA) selectively stimulates the blastogenic response of T lymphocytes. […] Cultures were incubated for 3 days at 37° C. in a humidified atmosphere of 5% of CO2 in air. […] The amount of ^3 H-thymidine incorporated by the cultures, as a measure of cell proliferation, was measured in a liquid scintillation counter. […]
Catalogue of inhibition at 10 µg/mL values
// note: answer is a bare numeric in %

Consider the worked cases shown below.
CC1(C)OC2OC3C(CSCCN4CCCC4)OC(C)(C)OC3C2O1 (centres unmarked) [IIIp] | 23
CN1CCCC1CCNC[C@H]1OC(C)(C)O[C@@H]2[C@H]3OC(C)(C)O[C@H]3O[C@@H]21 (some centres unmarked) [IIIi] | -10
CCCCC/C=C\COC[C@H]1O[C@](COC/C=C\CCCCC)(OC)[C@@H](O)[C@@H]1O [Ig] | 87
CCCCCCCOC[C@H]1O[C@](COCC)(OC)[C@@H](OCC)[C@@H]1O [Ib] | 96
Cc1cn([C@H]2C[C@H](N=[N+]=[N-])[C@@H](CO)O2)c(=O)[nH]c1=O [AZT, reference compound] | 99
CCCCCCCOC[C@H]1O[C@@]2(OC)COC(C)(C)O[C@H]2[C@@H]1O [Ia] | 52
CCCCCC#CCOC[C@H]1O[C@@]2(OC)COC(C)(C)O[C@H]2[C@@H]1OCC#CCCCCC [Id] | 100
CC1(C)OCC(C2OC3OC(C)(C)OC3C2NCCCO)O1 (centres unmarked) [IIk] | 38

Qu. What value of inhibition at 10 µg/mL has been recorded for this entry: CC1(C)OC2OC(C(O)COCCCc3ccccc3)C(O)C2O1 (centres unmarked) [IIIe]
Ans. 98

Qu. Also, CCCCCCCO[C@@H]1[C@@H](CO)O[C@@]2(OC)COC(C)(C)O[C@@H]12 [Ic] please.
Ans. 79

Qu. Also, CCCCC/C=C/COC[C@H]1O[C@@]2(OC)COC(C)(C)O[C@H]2[C@@H]1OC/C=C/CCCCC [Ie] please.
Ans. 91
